Origin of the recorded values: patent EP4755916A1

Tested target: T1, human BTN3A1 expressed on HEK293 cells (human, UniProt O00481 30-513)
T1 construct: whole, on cells; also called BTN3A1-expressing HEK293 cells; human BTN3A1-overexpressing cells
T1 sequence (O00481 30-513): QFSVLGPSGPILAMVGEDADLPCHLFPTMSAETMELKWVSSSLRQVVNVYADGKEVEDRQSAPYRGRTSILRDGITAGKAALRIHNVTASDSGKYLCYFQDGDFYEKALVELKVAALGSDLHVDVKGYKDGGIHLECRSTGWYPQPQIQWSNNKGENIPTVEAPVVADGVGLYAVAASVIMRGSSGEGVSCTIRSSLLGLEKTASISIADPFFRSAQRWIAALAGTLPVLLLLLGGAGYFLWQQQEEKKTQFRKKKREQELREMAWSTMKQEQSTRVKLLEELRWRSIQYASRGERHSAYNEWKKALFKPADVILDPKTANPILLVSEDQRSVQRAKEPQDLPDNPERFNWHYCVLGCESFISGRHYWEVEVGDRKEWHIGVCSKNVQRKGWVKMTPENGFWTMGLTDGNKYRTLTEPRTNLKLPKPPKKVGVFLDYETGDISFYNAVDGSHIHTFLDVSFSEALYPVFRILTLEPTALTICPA
Protocol text: flow cytometry, HEK293 cells overexpressing human BTN3A1
Experimental readout: EC50 (nM)
Could you give me the number in nM? Just the number is fine.

Need EC50 of 17G4-H5L3 (antibody, human IgG1, kappa, V domains shown, Humanized; human IgG1 constant region with L234F/L235E/P331S and human Ckappa; also called 17G4's humanized antibody) VH: EQQLVESGGGLVQPGGSLRLSCAASGFSLNDYYITWVRQAPGKGLEWIGVIYGSSNTVYASWAKGRFTISKTSTMVYLQMNSLRAEDTAVYFCARGYLASSADIWGQGTLVTVSS VL: DQQLTQSPSSLSASVGDRVTITCQSSQSVYNNNRLAWYQQKPGKPPKLLIYDASTLASGVPSRFSGSGSGTDFTLTISSLQPEDVATYYCQTYYSGYIWAFGGGTKVEIKR , thanks.
19.8
